Target: UniProt:Q9H244
Sequence (Q9H244 whole entry): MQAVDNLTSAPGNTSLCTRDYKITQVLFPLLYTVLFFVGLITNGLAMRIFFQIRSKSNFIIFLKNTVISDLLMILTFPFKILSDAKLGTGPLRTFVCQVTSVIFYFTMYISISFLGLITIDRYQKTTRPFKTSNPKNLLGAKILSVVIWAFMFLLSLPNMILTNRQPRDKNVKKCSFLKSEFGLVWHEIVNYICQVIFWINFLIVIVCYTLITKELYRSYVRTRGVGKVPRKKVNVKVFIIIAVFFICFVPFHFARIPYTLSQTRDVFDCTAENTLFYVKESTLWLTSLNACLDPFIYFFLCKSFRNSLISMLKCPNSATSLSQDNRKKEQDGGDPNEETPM
Assay: P2Y12 receptor binding assay
Settings: CHO cells with recombinant expression of the human P2Y12 receptor; tritium-labeled 2-methyl-S-ADP; RT, 2 hours
assayReadout: log10(IC50) (log10 of the value in nM)
// stored as log10 of IC50 expressed in nM

Observe how each entry below is paired with its result.
Enquiry: State the recorded log10(IC50) for this entry: `CCCCOC(=O)N1CCN(C(=O)[C@H](CP(=O)(OCC)OCC)NC(=O)c2csc(-c3ccccc3)n2)CC1`
Return: 2.70

Enquiry: Item: `CCCCOC(=O)N1CCN(C(=O)CNC(=O)c2csc(-c3ccccc3)n2)CC1`
Return: 1.97

Enquiry: Item: `CCCCOC(=O)N1CCN(C(=O)CNC(=O)c2nc(-c3ccccc3)c(CCCOC)s2)CC1`
Return: 2.87

Enquiry: Item: `CCCCOC(=O)N1CCN(C(=O)[C@H](CCC(=O)OC(C)(C)C)NC(=O)c2nc(-c3ccccc3)sc2Br)CC1`
Return: 3.09

Now for a further compound.
Enquiry: State the recorded log10(IC50) for this entry: `CCCCCCN(C)c1sc(C(=O)NCC(=O)N2CCN(C(=O)OCCCC)CC2)nc1-c1ccccc1`
Return: 3.19
